System: surinam grass
Test: Test B pre/postemergence surinam grass
Type: in vivo, Brachiaria decumbens
Settings: Preemergence, Rate 125 g/ha; scale of 0 to 10 where 0 is no effect and 10 is complete control
Let's look at some molecules and their measured Plant response rating, B. signalgrass.
The answer should be a number; do not append a unit.

Recorded Plant response rating, B. signalgrass, per entry:
CC(C)N(C(=O)n1oc(=O)n(CC(F)F)c1=O)c1ccccc1 [Compound 746]
9
CC(C)N(C(=O)n1oc(=O)n(C(C)CCl)c1=O)c1ccccc1 (centres unmarked) [Compound 411]
3
COC(=O)C(CCO)n1c(=O)on(C(=O)N(c2ccccc2)C(C)C)c1=O (centres unmarked) [Compound 678]
0
CC(C)N(C(=O)n1oc(=O)n(CCCC#N)c1=O)c1ccccc1 [Compound 674]
7

Here is the next item to consider.
Short answer on surinam grass for CC(C)N(C(=O)n1oc(=O)n(C)c1=O)c1ccccc1 [Compound 409] , Plant response rating, B. signalgrass: 4
